Test target: D(2) dopamine receptor (Rattus norvegicus)
Sequence (P61169 whole entry): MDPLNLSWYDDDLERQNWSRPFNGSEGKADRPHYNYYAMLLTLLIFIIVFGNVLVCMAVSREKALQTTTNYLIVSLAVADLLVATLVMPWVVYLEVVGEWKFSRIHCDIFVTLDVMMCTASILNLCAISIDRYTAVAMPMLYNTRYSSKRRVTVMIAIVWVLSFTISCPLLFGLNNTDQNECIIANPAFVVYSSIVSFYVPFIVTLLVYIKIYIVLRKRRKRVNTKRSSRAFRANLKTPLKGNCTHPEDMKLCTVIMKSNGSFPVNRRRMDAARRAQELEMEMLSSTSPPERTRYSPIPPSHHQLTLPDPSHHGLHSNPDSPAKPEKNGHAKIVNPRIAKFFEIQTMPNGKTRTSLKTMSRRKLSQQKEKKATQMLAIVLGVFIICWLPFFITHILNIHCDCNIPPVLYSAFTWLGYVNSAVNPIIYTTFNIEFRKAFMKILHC
Procedure text: Binding affinity towards dopamine receptor D2 using [3H]-raclopride radioligand.
pKi: −log10 of the molar value.
Readout label: pKi

Here are 5 compounds together with their reported answers.
1. O=C1C2CCCN2C(=O)N1CN1CCN(c2ccc(F)cc2)CC1 (configuration not stated); < 5.00
2. O=C1C2CCCN2C(=O)N1CCCCN1CCN(c2ccccc2)CC1 (configuration not stated); 6.38
3. COc1ccccc1N1CCN(CN2C(=O)C3CCCN3C2=O)CC1 (configuration not stated); < 6.00
4. COc1ccccc1N1CCN(CCCCN2C(=O)c3ccccc3C2=O)CC1; 7.19
5. O=C1C2CCCN2C(=O)N1CCCN1CCN(c2ccc(F)cc2)CC1 (configuration not stated); < 6.00

Input line: Please look up its pKi: O=C1C2CCCCN2C(=O)N1CN1CCN(c2cccc(Cl)c2)CC1 (configuration not stated)
Output line: < 5.00

Input line: Please look up its pKi: O=C1C2CCCN2C(=O)N1CCCN1CCN(c2ccccc2)CC1 (configuration not stated)
Output line: < 6.00

###

Test target: Adrenergic receptor alpha-1 (Rattus norvegicus, UniProt P15823+P23944+P43140)
Procedure text: Binding affinity towards alpha-1 adrenergic receptor using [3H]prazosin radioligand.
Assay type: protein assay
Readout label: Ki (µM)

Here are 5 molecules together with their reported answers.
1) O=C1C2CCCN2C(=O)N1CCCN1CCN(c2cccc(C(F)(F)F)c2)CC1 (stereo not given); 0.109
2) COc1ccccc1N1CCN(CCCN2C(=O)C3CCCN3C2=O)CC1 (stereo not given); 0.0031
3) O=C1C2CCCN2C(=O)N1CCCN1CCN(c2ccccc2)CC1 (stereo not given); 0.0154
4) O=C1C2CCCN2C(=O)N1CCCCN1CCN(c2cccc(C(F)(F)F)c2)CC1 (stereo not given); 0.0649
5) O=C1C2CCCCN2C(=O)N1CN1CCN(c2ccc(F)cc2)CC1 (stereo not given); 0.869

1: COc1ccccc1N1CCN(CCCCN2C(=O)C3CCCCN3C2=O)CC1 (stereo not given)
2: O=C1C2CCCN2C(=O)N1CCCCN1CCN(c2ccc(F)cc2)CC1 (stereo not given)
3: O=C1C2CCCN2C(=O)N1CN1CCN(c2cccc(Cl)c2)CC1 (stereo not given)
Input line: Given 3 molecules, produce a descending ranking by Ki. Would you mind listing the labels in the order asked for?
Output line: 3, 2, 1
(3: 0.292 µM, 2: 0.0472 µM, 1: 0.0086 µM)

###

Test target: D(2) dopamine receptor (Rattus norvegicus)
Procedure text: Binding affinity towards dopamine receptor D2 using [3H]-raclopride radioligand.
pKi: −log10 of the molar value.
The entries below are paired with their reported pKi.

1) O=C1C2CCCCN2C(=O)N1CN1CCN(c2cccc(C(F)(F)F)c2)CC1 (stereo not given); < 6.00
2) O=C1C2CCCN2C(=O)N1CCCN1CCN(c2ccc([N+](=O)[O-])cc2)CC1 (stereo not given); < 5.00

Input line: Please look up its pKi: O=C1C2CCCCN2C(=O)N1CCCN1CCN(c2ccccc2)CC1 (stereo not given)
Output line: < 6.00

Input line: Please look up its pKi: O=C1C2CCCCN2C(=O)N1CCCN1CCN(c2ccc([N+](=O)[O-])cc2)CC1 (stereo not given)
Output line: < 5.00

Input line: Please look up its pKi: O=C1C2CCCN2C(=O)N1CCCCN1CCN(c2cccc(C(F)(F)F)c2)CC1 (stereo not given)
Output line: < 6.00

Input line: Please look up its pKi: O=C1C2CCCCN2C(=O)N1CCN1CCN(c2cccc(C(F)(F)F)c2)CC1 (stereo not given)
Output line: < 6.00

Input line: Please look up its pKi: COc1ccccc1N1CCN(CCN2C(=O)C3CCCCN3C2=O)CC1 (stereo not given)
Output line: 6.61

Input line: Please look up its pKi: O=C1C2CCCCN2C(=O)N1CCCN1CCN(c2ccc(F)cc2)CC1 (stereo not given)
Output line: < 6.00

Input line: Please look up its pKi: O=C1C2CCCCN2C(=O)N1CCCCN1CCN(c2ccc([N+](=O)[O-])cc2)CC1 (stereo not given)
Output line: < 6.00

Input line: Please look up its pKi: O=C1C2CCCN2C(=O)N1CN1CCN(c2ccc([N+](=O)[O-])cc2)CC1 (stereo not given)
Output line: < 5.00
